test system: morningglory (Ipomoea spp.); assay: Test A pre-/postemergence: morningglory; format: in vivo; conditions: Preemergence, 125 g ai/ha; 0 to 100 scale where 0 is no effect and 100 is complete control
Each entry below lists one item and its recorded Plant response rating, Morningglory value.
Give the figure only, with no unit attached.

Look over these answered cases.
>>> df
                               smiles_entry  test_result
0  CON=C(c1cccc(C(F)(F)F)c1)c1nn(-c2ccnc(C(F)(F)F)c2)nc1C            0
1  FCc1nn(-c2ccc(F)cc2)nc1Oc1ccnc(C(F)(F)F)c1           40
2  CCc1nn(-c2ccc(F)cc2F)nc1Oc1ccnc(C(F)F)c1            0
3  Cc1nn(-c2ccc(F)cc2)nc1Oc1nccc(C(F)(F)F)n1            0
4  CCc1nn(-c2ccc(F)c(F)c2)nc1Oc1ccnc(C(F)(F)F)c1           50
5  CCc1nn(-c2ccc(C(F)(F)F)c(F)c2)nc1Oc1ccnc(C(F)(F)F)c1           70

Given the entry CC(C)(C)c1nn(-c2ccc(F)cc2)nc1Cc1ccnc(C(F)(F)F)c1 , report its measured Plant response rating, Morningglory.
0

Now give it for CCOc1nn(-c2ccc(Cl)cc2)nc1Cc1ccnc(C(F)(F)F)c1 too.
20

Now give it for FC(F)(F)c1cccc(-n2nc(Oc3ccnc(C(F)(F)F)c3)c(C3CC3)n2)c1 too.
0
